molecular target: Androgen receptor (Rattus norvegicus, UniProt P15207); format: functional; also: assay procedure not described here
Sequence (P15207 whole entry S389L): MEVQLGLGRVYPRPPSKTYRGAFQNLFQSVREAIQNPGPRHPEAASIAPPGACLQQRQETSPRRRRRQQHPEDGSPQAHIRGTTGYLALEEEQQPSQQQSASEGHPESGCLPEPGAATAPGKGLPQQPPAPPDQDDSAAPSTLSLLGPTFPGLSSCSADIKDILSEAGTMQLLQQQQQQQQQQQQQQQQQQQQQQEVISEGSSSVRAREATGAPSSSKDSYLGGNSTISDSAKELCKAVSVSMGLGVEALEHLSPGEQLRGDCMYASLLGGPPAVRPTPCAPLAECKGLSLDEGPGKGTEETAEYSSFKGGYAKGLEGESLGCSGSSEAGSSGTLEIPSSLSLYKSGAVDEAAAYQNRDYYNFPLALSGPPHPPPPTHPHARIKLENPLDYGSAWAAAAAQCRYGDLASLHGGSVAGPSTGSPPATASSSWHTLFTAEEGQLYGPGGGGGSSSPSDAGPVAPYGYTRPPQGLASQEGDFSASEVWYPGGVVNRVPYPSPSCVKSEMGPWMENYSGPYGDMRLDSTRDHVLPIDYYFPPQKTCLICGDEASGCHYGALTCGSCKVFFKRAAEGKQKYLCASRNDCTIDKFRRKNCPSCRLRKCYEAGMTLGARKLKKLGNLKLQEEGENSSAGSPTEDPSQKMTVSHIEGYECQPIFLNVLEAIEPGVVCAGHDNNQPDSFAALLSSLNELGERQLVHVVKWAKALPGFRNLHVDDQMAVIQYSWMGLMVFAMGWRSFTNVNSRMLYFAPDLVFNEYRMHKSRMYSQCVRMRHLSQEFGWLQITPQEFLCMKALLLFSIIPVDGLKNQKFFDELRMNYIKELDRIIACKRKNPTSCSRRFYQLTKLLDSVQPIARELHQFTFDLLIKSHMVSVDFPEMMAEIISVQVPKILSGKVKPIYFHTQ
Measurement name: AC50

[[record]]
compound = "C[C@]12CC[C@@H]3c4ccc(O)cc4C[C@@H](CCCCCCCCC[S+]([O-])CCCC(F)(F)C(F)(F)F)[C@H]3[C@@H]1CC[C@@H]2O (stereo partly drawn) [FULVESTRANT]"
measured = "> 30 µM"

[[record]]
compound = "NC1CCN(c2nc3c(cc2F)c(=O)c(C(=O)O)cn3-c2ccc(F)cc2F)C1 (stereo not drawn) [TOSUFLOXACIN]"
measured = "> 30 µM"

[[record]]
compound = "C#CCOc1ccc(N)cc1C(=O)NCCCC [PARSALMIDE]"
measured = "> 30 µM"

[[record]]
compound = "C[C@@H](Oc1cc(-c2cnn(C3CCNCC3)c2)cnc1N)c1c(Cl)ccc(F)c1Cl [CRIZOTINIB]"
measured = "> 30 µM"

[[record]]
compound = "COc1ccc(-c2noc(CC(=O)O)c2-c2ccc(OC)cc2)cc1 [MOFEZOLAC]"
measured = "> 30 µM"

[[record]]
compound = "CCN1CCN(Cc2ccc(Nc3ncc(F)c(-c4cc(F)c5nc(C)n(C(C)C)c5c4)n3)nc2)CC1 [ABEMACICLIB]"
measured = "> 30 µM"

[[record]]
compound = "CCC(C)C(CC)C(N)=O (stereo not drawn) [VALNOCTAMIDE]"
measured = "> 30 µM"

[[record]]
compound = "CCC(C)C1(CC)C(=O)NC(=O)NC1=O (stereo not drawn) [BUTABARBITAL]"
measured = "> 30 µM"


---

# AC50 measurements, system: Corticotropin-releasing factor receptor 1 (Homo sapiens); also: assay procedure not described here
# Sequence (P34998 whole entry): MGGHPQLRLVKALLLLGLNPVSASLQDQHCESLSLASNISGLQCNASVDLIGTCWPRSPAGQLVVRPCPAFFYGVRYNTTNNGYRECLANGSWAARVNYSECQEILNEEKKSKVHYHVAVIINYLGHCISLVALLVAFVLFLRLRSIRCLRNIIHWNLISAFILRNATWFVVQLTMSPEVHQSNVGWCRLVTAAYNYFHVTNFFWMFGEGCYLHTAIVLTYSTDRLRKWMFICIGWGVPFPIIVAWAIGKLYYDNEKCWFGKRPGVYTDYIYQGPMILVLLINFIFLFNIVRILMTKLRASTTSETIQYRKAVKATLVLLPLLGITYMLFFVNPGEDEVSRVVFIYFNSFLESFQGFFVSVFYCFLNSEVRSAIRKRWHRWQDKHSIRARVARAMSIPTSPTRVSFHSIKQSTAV
Measurement name: AC50

[[record]]
compound = "CCCC(CCC)C(=O)O"
measured = "> 30 µM"

[[record]]
compound = "CN(C)CCc1c[nH]c2ccc(Cn3cncn3)cc12"
measured = "> 30 µM"

[[record]]
compound = "CC(C)COCC(CN(Cc1ccccc1)c1ccccc1)N1CCCC1 (stereo not drawn)"
measured = "> 30 µM"


---

biological target: Beta-1 adrenergic receptor (Homo sapiens); assay type: functional; also: assay procedure not described here
Sequence (P08588 whole entry): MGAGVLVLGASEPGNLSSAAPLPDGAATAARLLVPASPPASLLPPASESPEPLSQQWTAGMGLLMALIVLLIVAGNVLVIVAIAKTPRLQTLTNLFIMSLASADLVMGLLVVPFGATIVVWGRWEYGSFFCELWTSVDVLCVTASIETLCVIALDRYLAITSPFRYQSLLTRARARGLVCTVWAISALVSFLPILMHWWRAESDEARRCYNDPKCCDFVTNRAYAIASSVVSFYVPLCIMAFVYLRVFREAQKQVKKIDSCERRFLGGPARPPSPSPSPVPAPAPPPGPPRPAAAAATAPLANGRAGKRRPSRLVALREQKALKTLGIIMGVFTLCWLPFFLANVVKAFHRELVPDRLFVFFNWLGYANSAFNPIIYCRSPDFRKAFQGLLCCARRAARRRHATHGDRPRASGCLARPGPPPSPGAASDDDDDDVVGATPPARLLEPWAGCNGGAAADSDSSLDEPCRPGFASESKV
Below: a set of entries, each annotated with reported AC50.
Measurement name: AC50

[[record]]
compound = "COc1ccc2nc3cc(Cl)ccc3c(Nc3cc(CN4CCCC4)c(O)c(CN4CCCC4)c3)c2n1"
measurement_name = "AC50"
measured = "> 30 µM"

[[record]]
compound = "O=C(O)c1ccccc1Nc1cc(Cl)ccc1C(=O)O"
measurement_name = "AC50"
measured = "> 30 µM"

[[record]]
compound = "CN(C)CC[C@@H](c1ccc(Cl)cc1)c1ccccn1"
measurement_name = "AC50"
measured = "> 30 µM"

[[record]]
compound = "CC(C)c1nc(N(C)S(C)(=O)=O)nc(-c2ccc(F)cc2)c1/C=C/[C@@H](O)C[C@@H](O)CC(=O)O"
measurement_name = "AC50"
measured = "> 30 µM"

[[record]]
compound = "CCC(=O)O[C@H]1CC[C@H]2[C@@H]3CCC4=CC(=O)CC[C@]4(C)[C@H]3CC[C@]12C [TESTOSTERONE PROPIONATE]"
measurement_name = "AC50"
measured = "> 10 µM"

[[record]]
compound = "CCC[C@H](NC(=O)[C@@H]1[C@H]2CCC[C@H]2CN1C(=O)[C@@H](NC(=O)[C@@H](NC(=O)c1cnccn1)C1CCCCC1)C(C)(C)C)C(=O)C(=O)NC1CC1"
measurement_name = "AC50"
measured = "> 10 µM"

[[record]]
compound = "CN1C(C(=O)Nc2ccccn2)=C(O)c2ccccc2S1(=O)=O"
measurement_name = "AC50"
measured = "> 10 µM"

[[record]]
compound = "CCC(C)C1(CC)C(=O)NC(=O)NC1=O (stereo not drawn)"
measurement_name = "AC50"
measured = "> 30 µM"

